# targetOrTestSystem: P2X purinoceptor 7 (Homo sapiens, UniProt Q99572)
# testSummary: Antagonist activity at P2X7 receptor expressed in HEK293 cells assessed as inhibition of ATP-induced YOPRO-1 uptake
# Assay type: functional, cell-based
endpoint: pIC50
Give bare numbers, as −log10 of the molar value.

Consider the following illustrative entries.
| molecule | targetOrTestSystem | measValue |
| --- | --- | --- |
| COC[C@H](O)Cn1c(=O)cnn(-c2ccc(Cl)c(C(=O)NCC3(O)CCCCCC3)c2)c1=O | P2X purinoceptor 7 (Homo sapiens, UniProt Q99572) | 8.40 |
| O=C(NCC1(O)CCCCCC1)c1cc(-n2ncc(=O)[nH]c2=O)ccc1Cl | P2X purinoceptor 7 (Homo sapiens, UniProt Q99572) | 7.82 |
| CCCCC(CC)CNC(=O)c1cc(-n2ncc(=O)[nH]c2=O)ccc1Cl (centres undefined) | P2X purinoceptor 7 (Homo sapiens, UniProt Q99572) | 5.96 |

Next, consider the following molecule.
Query: Report pIC50 for O=C(NCCc1ccccc1Cl)c1cc(-n2ncc(=O)[nH]c2=O)ccc1Cl please.
Result: 6.52

* * *

# testSummary: Oral bioavailability in rat at 5 mg/kg
# Format: ADME, organism-based
# settings: in vivo
Exercise: state measured bioavailability for each of the compounds provided.
Answers are plain numbers, in %.

| compoundStructureString | measValue |
| --- | --- |
| O=C(NCC1(O)CCCCCC1)c1cc(-n2ncc(=O)[nH]c2=O)ccc1Cl | 75 |

Next, consider the following compound.
Query: Report bioavailability for COC[C@H](O)Cn1c(=O)cnn(-c2ccc(Cl)c(C(=O)NCC3(O)CCCCCC3)c2)c1=O please.
Result: 2.6

* * *

# testSummary: Volume of distribution at steady state in monkey
# Format: ADME, organism-based, Macaca mulatta
# settings: rhesus monkey, in vivo; read-out: Vdss
endpoint: Vd (L/kg)
Numbers only, in L/kg.

| compound | Vd, L/kg |
| --- | --- |
| O=C(NCC1(O)CCCCCC1)c1cc(-n2ncc(=O)[nH]c2=O)ccc1Cl | 1.5 |

Query: Report Vd for COC[C@H](O)Cn1c(=O)cnn(-c2ccc(Cl)c(C(=O)NCC3(O)CCCCCC3)c2)c1=O [CE-224535] please.
Result: 0.68

* * *

# testSummary: Cmax in monkey
# Format: ADME, organism-based, Macaca mulatta
# settings: rhesus monkey, in vivo
Exercise: state measured Cmax for each of the compounds provided.
Answers are plain numbers, in µg/mL.

| compoundStructureString | endpoint | measValue |
| --- | --- | --- |
| O=C(NCC1(O)CCCCCC1)c1cc(-n2ncc(=O)[nH]c2=O)ccc1Cl | Cmax | 0.6 |

Next, consider the following compound.
Query: Report Cmax for COC[C@H](O)Cn1c(=O)cnn(-c2ccc(Cl)c(C(=O)NCC3(O)CCCCCC3)c2)c1=O please.
Result: 0.55

* * *

# testSummary: Apparent permeability from apical to basolateral side of human Caco2 cells
# Type: ADME, cell-based
# settings: Caco-2
endpoint: Papp A→B (×10⁻⁶ cm/s)
Numbers only, in ×10⁻⁶ cm/s.

Query: Report Papp A→B for O=C(NCCc1ccccc1Cl)c1cc(-n2ncc(=O)[nH]c2=O)ccc1Cl please.
Result: 10

* * *

# testSummary: in vivo
# settings: rat, plasma
Exercise: state measured clearance for each of the molecules provided.
# output: numeric value plus its unit

| compoundStructureString | clearance |
| --- | --- |
| O=C(NCCc1ccccc1Cl)c1cc(-n2ncc(=O)[nH]c2=O)ccc1Cl | 9.5 mL/min/kg |

Query: Report clearance for O=C(NCC1(O)CCCCCC1)c1cc(-n2ncc(=O)[nH]c2=O)ccc1Cl please.
Result: 20 mL/min/kg

* * *

# testSummary: Half life in rat
# Type: ADME, organism-based
# settings: in vivo
endpoint: half-life (min)
Answers are plain numbers, in min.

| molecule | unitsLabel | measValue |
| --- | --- | --- |
| COC[C@H](O)Cn1c(=O)cnn(-c2ccc(Cl)c(C(=O)NCC3(O)CCCCCC3)c2)c1=O [CE-224535] | min | 144 |

Next, consider the following molecule.
Query: Report half-life for O=C(NCC1(O)CCCCCC1)c1cc(-n2ncc(=O)[nH]c2=O)ccc1Cl please.
Result: 192

* * *

Exercise: state measured IC50 for each of the molecules provided.
# targetOrTestSystem: P2X purinoceptor 7 (Homo sapiens)
# Sequence (Q99572 whole entry): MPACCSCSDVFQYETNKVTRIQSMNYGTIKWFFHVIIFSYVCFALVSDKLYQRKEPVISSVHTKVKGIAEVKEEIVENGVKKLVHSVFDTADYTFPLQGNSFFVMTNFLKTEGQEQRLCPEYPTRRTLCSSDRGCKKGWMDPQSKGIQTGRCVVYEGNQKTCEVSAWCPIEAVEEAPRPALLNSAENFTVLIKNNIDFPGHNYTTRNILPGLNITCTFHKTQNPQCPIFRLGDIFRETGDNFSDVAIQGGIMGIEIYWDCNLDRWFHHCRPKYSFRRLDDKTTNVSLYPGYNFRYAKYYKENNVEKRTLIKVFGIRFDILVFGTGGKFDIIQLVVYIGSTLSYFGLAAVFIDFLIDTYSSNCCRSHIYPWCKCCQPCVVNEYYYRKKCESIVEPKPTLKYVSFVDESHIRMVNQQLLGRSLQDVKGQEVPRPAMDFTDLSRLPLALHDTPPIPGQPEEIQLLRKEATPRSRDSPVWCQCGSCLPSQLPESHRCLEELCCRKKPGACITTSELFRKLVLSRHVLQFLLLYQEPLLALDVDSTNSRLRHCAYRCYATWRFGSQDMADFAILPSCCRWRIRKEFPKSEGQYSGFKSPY
# testSummary: Antagonist activity at P2X7 receptor in human LPS-stimulated monocytes assessed as inhibition of ATP-induced IL1-beta release by ELISA
# Assay type: functional, cell-based
Give bare numbers, in µM.

Consider the following illustrative entries.
| compoundStructureString | IC50 / µM |
| --- | --- |
| CCCCCNC(=O)c1cc(-n2ncc(=O)[nH]c2=O)ccc1Cl | 2.8 |
| COC[C@H](O)Cn1c(=O)cnn(-c2ccc(Cl)c(C(=O)NCC3(O)CCCCCC3)c2)c1=O | 0.0014 |
| CCCCCCNC(=O)c1cc(-n2ncc(=O)[nH]c2=O)ccc1Cl | 3.6 |

For the 4 molecules below, give their IC50 values.
1. CC(C)Cn1c(=O)cnn(-c2ccc(Cl)c(C(=O)NCC3(O)CCCCCC3)c2)c1=O
2. COCCn1c(=O)cnn(-c2ccc(Cl)c(C(=O)NCC3(O)CCCCCC3)c2)c1=O
3. O=C(NCC1(O)CCCCCC1)c1cc(-n2ncc(=O)[nH]c2=O)ccc1Cl
4. Cn1c(=O)cnn(-c2ccc(Cl)c(C(=O)NCC3(O)CCCCCC3)c2)c1=O

Result:
1: 0.034; 2: 0.019; 3: 0.083; 4: 0.042

Query: Report IC50 for Cc1ccc(-n2ncc(=O)[nH]c2=O)cc1C(=O)NCC1(O)CCCCCC1 please.
Result: 0.7

* * *

# targetOrTestSystem: Cytochrome P450 2D6 (Homo sapiens, UniProt P10635)
# Sequence (P10635 whole entry): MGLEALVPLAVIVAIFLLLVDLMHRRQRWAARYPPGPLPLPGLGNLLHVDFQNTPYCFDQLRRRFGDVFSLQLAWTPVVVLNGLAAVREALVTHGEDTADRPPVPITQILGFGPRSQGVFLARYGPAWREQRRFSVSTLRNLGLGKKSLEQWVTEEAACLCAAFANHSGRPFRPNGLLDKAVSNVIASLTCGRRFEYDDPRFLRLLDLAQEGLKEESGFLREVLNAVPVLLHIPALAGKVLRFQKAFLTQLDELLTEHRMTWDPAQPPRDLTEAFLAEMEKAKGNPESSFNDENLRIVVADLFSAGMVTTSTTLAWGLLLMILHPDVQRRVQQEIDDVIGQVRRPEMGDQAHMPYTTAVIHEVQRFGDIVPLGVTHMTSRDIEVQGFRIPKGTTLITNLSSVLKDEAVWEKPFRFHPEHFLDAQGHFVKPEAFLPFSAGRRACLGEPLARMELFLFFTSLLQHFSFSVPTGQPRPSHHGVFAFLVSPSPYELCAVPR
pIC50: −log10 of the molar value.
endpoint: pIC50

Query: Report pIC50 for COC[C@H](O)Cn1c(=O)cnn(-c2ccc(Cl)c(C(=O)NCC3(O)CCCCCC3)c2)c1=O [CE-224535] please.
Result: < 4.52

* * *

Exercise: state measured Cmax for each of the molecules provided.
# testSummary: Cmax in dog
# Type: ADME, organism-based, Canis lupus familiaris
# settings: in vivo
# output: numeric value plus its unit

| molecule | Cmax |
| --- | --- |
| COC[C@H](O)Cn1c(=O)cnn(-c2ccc(Cl)c(C(=O)NCC3(O)CCCCCC3)c2)c1=O [CE-224535] | 3500 ng/mL |

Next, consider the following molecule.
Query: Report Cmax for O=C(NCC1(O)CCCCCC1)c1cc(-n2ncc(=O)[nH]c2=O)ccc1Cl please.
Result: 7400 ng/mL
